Recorded values, source the supplement of paper PMC4977894.

Exercise: state measured perceived odor intensity rating for each of the compounds provided.
System: Homo sapiens (human subject panel, olfactory perception)
Assay: perceived odor intensity rating (rating 0-100); higher = stronger perceived smell
Conditions: odor dilution in paraffin oil: 1/10
One number for each entry.

compound="CCCCCCCCCCC(=O)O [Undecanoic acid]" result_value=81.8
compound="N[C@@H](CS)C(=O)O [L-Cysteine]" result_value=71.7
compound="NC(Cc1ccccc1)C(=O)O (racemic) [DL-Phenylalanine (replicate)]" result_value=66.3
compound="O=C(O)/C=C/c1ccccc1 [trans-Cinnamic acid]" result_value=72.3

Items follow; give perceived odor intensity rating for each.
1. O.O.O=P([O-])([O-])O.[Na+].[Na+] [Sodium phosphate dibasic]
2. CO [methanol]
3. Cc1ccc(C(C)C)cc1 [para-cymene]
4. O=C1CCCCCCCCCCCCCCO1 [Omega-Pentadecalactone]
5. CC1(C)CCC[C@]2(C)[C@H]3CCO[C@]3(C)CC[C@@H]12 [Ambrox]
6. CCOC(=O)CCC(=O)OCC [diethyl succinate]

1. 27.2
2. 35
3. 83.7
4. 57
5. 73.6
6. 70.6

The compound C/C=C/C=C/COC(C)=O [trans,trans-2,4-Hexadienyl acetate] showed perceived odor intensity rating equal to 13.9
